Cited source for all entries: ChEMBL document CHEMBL1132620

- assay-info: Maximum serum concentration after po dose of 5.22 mg/kg in rats
- Format: ADME, organism-based
- Set-up: dose 5.22 mg/kg, route oral
- particulars: rat
assay-readout: Cmax
Be sure to follow the number with its unit.

Supply measured Cmax of `CCCC(=O)O.C[C@@H]1CN(C(=O)N2Cc3c(C(=O)OC(C)(C)C)ncn3-c3ccc(Cl)cc32)C[C@H](C)N1` in your reply.
1170 ng/mL

====

- assay-info: Oral bioavailability in rats at a dose of 5.22 mg/kg
- Type: ADME, organism-based
- particulars: rat, in vivo
assay-readout: bioavailability (%)
Number in %, nothing else.

Supply measured bioavailability of `CCCC(=O)O.C[C@@H]1CN(C(=O)N2Cc3c(C(=O)OC(C)(C)C)ncn3-c3ccc(Cl)cc32)C[C@H](C)N1` in your reply.
101

====

Documented Change in Cl- current across a set of compounds
- system-under-test: GABA-A receptor; alpha-1/beta-2/gamma-2 (Homo sapiens) (UniProt P14867+P47870+P18507)
- assay-info: In vitro GABA-mediated chloride current in A293 cells expressing GABA-A benzodiazepine receptor alpha-1-beta-2-gamma-2 subunits at 5 uM
- Format: functional, cell-based
- particulars: HEK293
Just the number, please, no unit attached.

Field: example entries. Status: answers known.
{"compound": "C[C@@H]1CN(C(=O)N2Cc3c(C(=O)OC(C)(C)C)ncn3-c3ccc(F)cc32)C[C@H](C)N1", "measured-number": 0}
{"compound": "C[C@H]1NCCN(C(=O)N2Cc3c(C(=O)OC(C)(C)C)ncn3-c3ccc(Cl)cc32)[C@H]1C", "measured-number": 0}
{"compound": "CC1CN(C(=O)N2Cc3c(C(=O)OC(C)(C)C)ncn3-c3ccc(Cl)cc32)CCN1 (stereo not drawn)", "measured-number": 0.17}

Supply measured Change in Cl- current of `CC(C)(C)OC(=O)c1ncn2c1CN(C(=O)N1CCOCC1)c1ccccc1-2` in your reply.
0.14

Supply measured Change in Cl- current of `CC(C)(C)OC(=O)c1ncn2c1CN(C(=O)N1CCN(C(C)(C)C)CC1)c1cc(Cl)ccc1-2` in your reply.
0.12

====

- system-under-test: GABA-A receptor; alpha-1/beta-2/gamma-2 (Homo sapiens) (UniProt P14867+P47870+P18507)
- assay-info: In vitro GABA-mediated chloride current in A293 cells expressing GABA-A benzodiazepine receptor alpha-1-beta-2-gamma-2 subunits at 5 uM
- Assay type: functional, cell-based
- particulars: HEK293
Documented Change in Cl- current across a set of molecules
Just the number, please, no unit attached.

Field: example entries. Status: answers known.
{"molecule": "CC1CN(C(=O)N2Cc3c(C(=O)OC(C)(C)C)ncn3-c3ccc(Cl)cc32)C(C)CN1.O=C(O)CC(=O)O (stereo not drawn)", "Change in Cl- current": 0.3}
{"molecule": "C[C@@H]1CN(C(=O)N2Cc3c(C(=O)OC(C)(C)C)ncn3-c3ccc(C(F)(F)F)cc32)CCN1", "Change in Cl- current": 1}
{"molecule": "CCCC(=O)O.C[C@@H]1CN(C(=O)N2Cc3c(C(=O)OC(C)(C)C)ncn3-c3ccc(Cl)cc32)C[C@H](C)N1", "Change in Cl- current": 0.85}
{"molecule": "C[C@@H]1CN(C(=O)N2Cc3c(C(=O)OC(C)(C)C)ncn3-c3ccc(Cl)cc32)CCN1", "Change in Cl- current": 0.6}
{"molecule": "C[C@H]1CN(C(=O)N2Cc3c(C(=O)OC(C)(C)C)ncn3-c3ccc(C(F)(F)F)cc32)CCN1", "Change in Cl- current": 0.8}
{"molecule": "CC(C)(C)OC(=O)c1ncn2c1CN(C(=O)N1CCN(C3CC3)CC1)c1cc(Cl)ccc1-2", "Change in Cl- current": 0.42}
{"molecule": "Cc1ccc2c(c1)N(C(=O)N1C[C@H](C)N[C@@H](C)C1)Cc1c(C(=O)OC(C)(C)C)ncn1-2", "Change in Cl- current": 1.3}

Let's switch to this molecule now.
Supply measured Change in Cl- current of `CC(C)(C)OC(=O)c1ncn2c1CN(C(=O)N1CCN(CC(F)(F)F)CC1)c1cc(Cl)ccc1-2` in your reply.
0.8
